Where these numbers come from: ChEMBL document CHEMBL1201862

- System: MOLT-4
- measurement-protocol: NCI tumour cell line growth inhibition, 48 h
Active and inactive are the calls of the source. Rule as the data show it: active = GI50 up to about 1.1 µM and inactive = higher.
Classes to choose from: active, inactive

// known answers, use as guide
C#CCNC(CCCNC(=N)N)C(=O)O (configuration not stated); inactive
CC12CCC(=O)N1c1cnccc1N2 (configuration not stated); inactive
COc1cc(C2S/C(=C/c3ccccc3)C(=O)N2c2cc(Cl)c(Cl)cc2Cl)cc(OC)c1OC (configuration not stated); inactive

Could you please tell me the result logged for COc1ccc(CN2CCC/C=C/CC(Cl)(Cl)C2=O)cc1 in this assay?
inactive

O=c1[nH]c(=O)n(COC(CO)CO)cc1-c1ccccc1 , same question.
inactive

Cn1nc2ccc(Nc3cc(=O)[nH]c4ccc5nn(C)nc5c34)cc2n1 ?
inactive

And what about the compound Cc1[nH]c(-c2ccccc2)c2nc(N(C)C)oc(=O)c12 ?
inactive

Follow-up entry: CN(C)CCn1c(=O)c2ccc(NCCNCCO)c3c(=O)c4ccccc4n(c1=O)c23
active

Okay, and Nc1ccc2c(c1)S(=O)(=O)c1cc(N)ccc1-2 ?
inactive

One more compound: O=S(=O)(O)c1ccc(/N=N/c2ccc(/N=N/c3c(O)ccc4ccc(S(=O)(=O)O)cc34)cc2)cc1
inactive

Please do the same for CCCC1(CCC)c2cc(/C=N\O)ccc2-c2ccc(-c3ccc(C(C)(C)C)cc3)cc21 as well.
inactive

Cool, now Cc1[nH]c2ccccc2c1-c1cc(-c2cc(-c3c(C)[nH]c4ccccc34)nc(N)n2)nc(N)n1
inactive

Another: O=[N+]([O-])c1ccc(C2=Nc3ccccc3[S+]([O-])C(c3ccccc3)C2)cc1 (configuration not stated)
inactive

Repeat with CC(=O)O[C@H]1C(=O)[C@@]2(C)[C@H]([C@H](OC(=O)c3ccccc3)[C@]3(O)C[C@H](OC(=O)[C@H](O)[C@@H](NC(=O)C(C)(C)C)c4ccccc4)C(C)=C1C3(C)C)[C@]1(OC(C)=O)CO[C@@H]1C[C@@H]2O
active

Entry CNC(=O)CCCNC(=O)CCCC(=O)N(C)C please
inactive

And what about the compound C/C=C/[C@@H]1O[C@H](CC#C[Si](C)(C)C)[C@@]2(C=O)C(C)=CC[C@H](C(C)C)[C@@H]12 ?
inactive

Same lookup for Brc1ccc2c(-c3nc(-c4c[nH]c5ccc(Br)cc45)cs3)c[nH]c2c1 , please.
inactive

Proceed to Cc1ccc(-c2ccc3c(c2)Sc2ccccc2O3)n1C
active

* * *

- Test system: DU-145
- measurement-protocol: NCI tumour cell line growth inhibition, 48 h
Activity calls are given as the source filed them. Rule as the data show it: active = GI50 up to about 1.1 µM and inactive = higher.
reported-endpoint: GI50

Below: 5 compounds and their reported GI50.
O=C(/C=C/c1ccccc1)CSc1nc[nH]n1; > 100 µM (inactive)
C#CCNC(CCCNC(=N)N)C(=O)O (stereo not given); > 100 µM (inactive)
O=c1oc2ccc3ccccc3c2cc1-c1nc2ccccc2s1; > 100 µM (inactive)
Cc1nn(-c2ccccc2)c2nc3c(c(C)nn3-c3ccccc3)c(-c3ccc(C(F)(F)F)cc3)c12; > 100 µM (inactive)
O=C(O)C#Cc1ccc([N+](=O)[O-])cc1; > 100 µM (inactive)

Consider the compound shown here: Cc1cc2c([nH]c3ccccc32)c(O)c1-c1c(C)cc2c([nH]c3ccccc32)c1O What is its recorded GI50?
13 µM (inactive)
